Target: PKC epsilon (Homo sapiens)
Construct: purchased Invitrogen P2282
Experiment: Biochemical assay for PKC epsilon (fluorescence polarization, Protein Kinase C Assay Kit, Red)
Conditions: compounds of Formula XIV, Table 3; read-out: IC50 μM PKCε
Description: The compounds were tested for inhibition of PKC epsilon. The inhibition assays were performed with a fluorescence polarization (FP) assay using the commercially available Protein Kinase C Assay Kit, Red, from Invitrogen (Product ID. No. P2941), essentially in accordance with the protocol supplied by the manufacturer. […] The results were fitted to a curve using the XL-Fit algorithm and […] were calculated for each fitted curve, again using the XL-Fit algorithm.
measurement-label: IC50

stdin: Which IC50 reading was recorded for the molecule NC(CC(=O)NNC(=O)c1ccco1)c1ccc(C(=O)Nc2ccncc2)cc1 (stereo not shown) [Compound 325] ?
stdout: 0.5 to 5 µM

Next:
stdin: Which IC50 reading was recorded for the molecule COCC(C)NC(=O)CC(N)c1ccc(C(=O)Nc2ccncc2)cc1 (stereo not shown) [Compound 181] ?
stdout: 0.5 to 5 µM

stdin: Which IC50 reading was recorded for the molecule NC(CC(=O)NCc1cccc(C(F)(F)F)c1)c1ccc(C(=O)Nc2ccncc2)cc1 (stereo not shown) [Compound 264] ?
stdout: 0.5 to 5 µM

stdin: Which IC50 reading was recorded for the molecule NC(CC(=O)NC1CCN(Cc2ccccc2)CC1)c1ccc(C(=O)Nc2ccncc2)cc1 (stereo not shown) [Compound 200] ?
stdout: 0.5 to 5 µM

stdin: Which IC50 reading was recorded for the molecule COc1ccc(CNC(=O)CC(N)c2ccc(C(=O)Nc3ccncc3)cc2)cc1OC (stereo not shown) [Compound 240] ?
stdout: 5 to 50 µM

stdin: Which IC50 reading was recorded for the molecule NC(CC(=O)NC1CCCc2ccccc21)c1ccc(C(=O)Nc2ccncc2)cc1 (stereo not shown) [Compound 223] ?
stdout: 0.05 to 0.5 µM

stdin: Which IC50 reading was recorded for the molecule NC(CC(=O)NCc1cccc(OC(F)(F)F)c1)c1ccc(C(=O)Nc2ccncc2)cc1 (stereo not shown) [Compound 270] ?
stdout: 0.5 to 5 µM

stdin: Which IC50 reading was recorded for the molecule NC(CC(=O)NCc1ccccc1OC(F)(F)F)c1ccc(C(=O)Nc2ccncc2)cc1 (stereo not shown) [Compound 269] ?
stdout: 0.5 to 5 µM

stdin: Which IC50 reading was recorded for the molecule CC(C)(NC(=O)CC(N)c1ccc(C(=O)Nc2ccncc2)cc1)c1ccc(Cl)cc1 (stereo not shown) [Compound 622] ?
stdout: 0.05 to 0.5 µM

stdin: Which IC50 reading was recorded for the molecule NC(CC(=O)NCc1ccc([N+](=O)[O-])cc1)c1ccc(C(=O)Nc2ccncc2)cc1 (stereo not shown) [Compound 273] ?
stdout: 0.5 to 5 µM

stdin: Which IC50 reading was recorded for the molecule Cc1ccc(CCNC(=O)CC(N)c2ccc(C(=O)Nc3ccncc3)cc2)cc1 (stereo not shown) [Compound 284] ?
stdout: 5 to 50 µM

* * *

Target: PKC epsilon (Homo sapiens, UniProt Q02156)
Construct: purchased Invitrogen P2282
Sequence (Q02156 whole entry): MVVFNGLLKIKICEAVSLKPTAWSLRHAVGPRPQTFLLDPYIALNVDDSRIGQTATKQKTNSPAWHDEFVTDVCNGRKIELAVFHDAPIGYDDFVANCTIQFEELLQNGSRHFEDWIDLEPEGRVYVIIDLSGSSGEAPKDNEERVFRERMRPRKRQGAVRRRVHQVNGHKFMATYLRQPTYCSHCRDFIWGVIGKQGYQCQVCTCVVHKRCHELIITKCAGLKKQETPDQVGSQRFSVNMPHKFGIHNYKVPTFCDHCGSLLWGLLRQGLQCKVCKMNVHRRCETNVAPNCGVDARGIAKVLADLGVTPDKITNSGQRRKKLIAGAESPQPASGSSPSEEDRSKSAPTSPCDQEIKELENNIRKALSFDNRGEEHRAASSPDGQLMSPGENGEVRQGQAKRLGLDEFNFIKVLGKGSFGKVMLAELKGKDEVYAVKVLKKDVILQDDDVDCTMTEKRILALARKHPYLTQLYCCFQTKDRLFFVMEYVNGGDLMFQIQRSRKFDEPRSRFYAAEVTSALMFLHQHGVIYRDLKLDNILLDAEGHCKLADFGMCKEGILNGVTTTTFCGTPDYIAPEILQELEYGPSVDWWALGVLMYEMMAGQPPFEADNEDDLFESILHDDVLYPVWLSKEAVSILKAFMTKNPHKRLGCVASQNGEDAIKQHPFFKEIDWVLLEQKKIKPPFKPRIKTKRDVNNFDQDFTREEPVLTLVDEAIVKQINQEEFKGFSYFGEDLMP
Assay: Biochemical assay for PKC epsilon (fluorescence polarization, Protein Kinase C Assay Kit, Red)
Conditions: Table 2, compounds of Formula XIII; read-out: IC50 μM PKCε
Reported IC50 values for the following compounds.

Below, each entry is followed by its recorded IC50 result.
stdin: Which IC50 reading was recorded for the compound NC(CNC(=O)c1ccccc1-c1ccccc1)c1ccc(C(=O)Nc2ccncc2)cc1 (stereo not drawn) ?
stdout: 0.5 to 5 µM

stdin: Which IC50 reading was recorded for the compound NC(CNC(=O)C1CCCC1)c1ccc(C(=O)Nc2ccncc2)cc1 (stereo not drawn) ?
stdout: 0.5 to 5 µM

Now for another entry.
stdin: Which IC50 reading was recorded for the compound COc1ccc(C2(C(=O)NCC(N)c3ccc(C(=O)Nc4ccncc4)cc3)CCCC2)cc1 (stereo not drawn) ?
stdout: 0.05 to 0.5 µM

* * *

Molecular target: PKC epsilon (Homo sapiens)
Construct: purchased Invitrogen P2282
Experiment: Biochemical assay for PKC epsilon (fluorescence polarization, Protein Kinase C Assay Kit, Red)
Details: Table 2, compounds of Formula XIII; read-out: IC50 μM PKCε
Reported IC50 values for the following compounds.

Below, each entry is followed by its recorded IC50 result.
stdin: Which IC50 reading was recorded for the compound NC(CNC(=O)Cc1ccc(-c2ccccc2)cc1)c1ccc(C(=O)Nc2ccncc2)cc1 (stereo not shown) ?
stdout: 5 to 50 µM

stdin: Which IC50 reading was recorded for the compound Cc1cc(Cl)ccc1OC(C)C(=O)NCC(N)c1ccc(C(=O)Nc2ccncc2)cc1 (stereo not shown) ?
stdout: 0.5 to 5 µM

stdin: Which IC50 reading was recorded for the compound NC(CNC(=O)CC(c1ccccc1)c1ccccc1)c1ccc(C(=O)Nc2ccncc2)cc1 (stereo not shown) ?
stdout: 5 to 50 µM

stdin: Which IC50 reading was recorded for the compound NC(CNC(=O)C1(c2cccc(F)c2)CCCC1)c1ccc(C(=O)Nc2ccncc2)cc1 (stereo not shown) ?
stdout: 0.05 to 0.5 µM

stdin: Which IC50 reading was recorded for the compound NC(CNC(=O)c1ccoc1)c1ccc(C(=O)Nc2ccncc2)cc1 (stereo not shown) ?
stdout: 0.5 to 5 µM

stdin: Which IC50 reading was recorded for the compound CN(C)CCCC(=O)NCC(N)c1ccc(C(=O)Nc2ccncc2)cc1 (stereo not shown) ?
stdout: 5 to 50 µM

stdin: Which IC50 reading was recorded for the compound NC(CNC(=O)C(c1ccccc1)C1CCCC1)c1ccc(C(=O)Nc2ccncc2)cc1 (stereo not shown) ?
stdout: 5 to 50 µM

stdin: Which IC50 reading was recorded for the compound NC(CNC(=O)Cc1ccncc1)c1ccc(C(=O)Nc2ccncc2)cc1 (stereo not shown) ?
stdout: 5 to 50 µM

Next:
stdin: Which IC50 reading was recorded for the compound NC(CNC(=O)Cc1ccc(F)c(Cl)c1)c1ccc(C(=O)Nc2ccncc2)cc1 (stereo not shown) ?
stdout: 0.05 to 0.5 µM

stdin: Which IC50 reading was recorded for the compound NC(CNC(=O)c1ccc2[nH]nnc2c1)c1ccc(C(=O)Nc2ccncc2)cc1 (stereo not shown) ?
stdout: 5 to 50 µM

* * *

Target: PKC epsilon (Homo sapiens)
Construct: purchased Invitrogen P2282
Experiment: Biochemical assay for PKC epsilon (fluorescence polarization, Protein Kinase C Assay Kit, Red)
Conditions: read-out: IC50 μM PKCε
measurement-label: IC50

Below, each entry is followed by its recorded IC50 result.
stdin: Record lookup: for PKC epsilon (Homo sapiens), what IC50 belongs to NC(c1ccc(C(=O)Nc2ccncc2)cc1)C1CCCN1C(=O)Cc1c(F)cccc1F (stereo not shown) ?
stdout: 5 to 50 µM

stdin: Record lookup: for PKC epsilon (Homo sapiens), what IC50 belongs to NC(c1ccc(C(=O)Nc2ccncc2)cc1)C1CCCN1C(=O)C1CCc2ccccc21 (stereo not shown) ?
stdout: 0.5 to 5 µM

stdin: Record lookup: for PKC epsilon (Homo sapiens), what IC50 belongs to NC(c1ccc(C(=O)Nc2ccncc2)cc1)C1CCCN1C(=O)C1(c2ccc(Cl)c(Cl)c2)CCC1 (stereo not shown) ?
stdout: 0.5 to 5 µM

Now for another entry.
stdin: Record lookup: for PKC epsilon (Homo sapiens), what IC50 belongs to COc1ccc(CC(=O)N(C)CC(N)c2ccc(C(=O)Nc3ccncc3)cc2)c(OC)c1 (stereo not shown) ?
stdout: 5 to 50 µM

* * *

Biological target: human ROCKα/ROCKII mix (Homo sapiens, UniProt O75116)
Construct: purchased Upstate Biotechnology 14-451
Sequence (O75116 11-552 limits assumed): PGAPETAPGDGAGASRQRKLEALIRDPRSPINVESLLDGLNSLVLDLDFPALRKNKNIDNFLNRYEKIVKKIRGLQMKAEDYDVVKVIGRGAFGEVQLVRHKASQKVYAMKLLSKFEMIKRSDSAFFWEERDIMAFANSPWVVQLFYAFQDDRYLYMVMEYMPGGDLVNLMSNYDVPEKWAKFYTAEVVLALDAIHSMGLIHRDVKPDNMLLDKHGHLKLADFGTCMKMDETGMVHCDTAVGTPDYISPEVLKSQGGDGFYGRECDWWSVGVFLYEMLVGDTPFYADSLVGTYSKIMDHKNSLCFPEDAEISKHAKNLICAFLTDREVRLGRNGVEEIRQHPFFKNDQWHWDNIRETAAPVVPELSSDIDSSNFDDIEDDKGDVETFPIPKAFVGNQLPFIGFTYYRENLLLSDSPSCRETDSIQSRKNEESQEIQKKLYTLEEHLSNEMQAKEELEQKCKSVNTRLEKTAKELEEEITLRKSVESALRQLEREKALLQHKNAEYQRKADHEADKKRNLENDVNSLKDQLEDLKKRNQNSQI
Assay: Biochemical assay for ROCK (fluorescence polarization, ROCK IMAP Kit)
Details: Table 2, compounds of Formula XIII
Reported IC50 values for the following molecules.

Below, each entry is followed by its recorded IC50 result.
stdin: Which IC50 reading was recorded for the molecule COCCC(=O)NCC(N)c1ccc(C(=O)Nc2ccncc2)cc1 (stereo not shown) ?
stdout: 0.5 to 5 µM

stdin: Which IC50 reading was recorded for the molecule NC(CNC(=O)c1ccc2ncccc2c1)c1ccc(C(=O)Nc2ccncc2)cc1 (stereo not shown) ?
stdout: 0.5 to 5 µM

stdin: Which IC50 reading was recorded for the molecule CC(C)(C(=O)NCC(N)c1ccc(C(=O)Nc2ccncc2)cc1)c1ccc(F)cc1Cl (stereo not shown) ?
stdout: 0.05 to 0.5 µM

stdin: Which IC50 reading was recorded for the molecule NC(CNC(=O)C1CCOc2ccccc21)c1ccc(C(=O)Nc2ccncc2)cc1 (stereo not shown) ?
stdout: 0.05 to 0.5 µM

stdin: Which IC50 reading was recorded for the molecule NC(CNC(=O)Cc1ccccn1)c1ccc(C(=O)Nc2ccncc2)cc1 (stereo not shown) ?
stdout: 0.5 to 5 µM

stdin: Which IC50 reading was recorded for the molecule NC(CNC(=O)COc1ccc(F)cc1)c1ccc(C(=O)Nc2ccncc2)cc1 (stereo not shown) ?
stdout: 0.05 to 0.5 µM

stdin: Which IC50 reading was recorded for the molecule NC(CNC(=O)Cc1c[nH]c2ccccc12)c1ccc(C(=O)Nc2ccncc2)cc1 (stereo not shown) ?
stdout: 0.05 to 0.5 µM

stdin: Which IC50 reading was recorded for the molecule CC(C)(C(=O)NCC(N)c1ccc(C(=O)Nc2ccncc2)cc1)c1cccs1 (stereo not shown) ?
stdout: 0.05 to 0.5 µM

stdin: Which IC50 reading was recorded for the molecule NC(CNC(=O)c1ccc(Oc2ccccc2)cc1)c1ccc(C(=O)Nc2ccncc2)cc1 (stereo not shown) ?
stdout: 0.5 to 5 µM

stdin: Which IC50 reading was recorded for the molecule NC(CNC(=O)C1(c2ccc(F)cc2Cl)CC1)c1ccc(C(=O)Nc2ccncc2)cc1 (stereo not shown) ?
stdout: 0.05 to 0.5 µM

Next:
stdin: Which IC50 reading was recorded for the molecule CC1CC1C(=O)NCC(N)c1ccc(C(=O)Nc2ccncc2)cc1 (stereo not shown) ?
stdout: 0.5 to 5 µM

stdin: Which IC50 reading was recorded for the molecule Cc1nc(-c2ccccc2)sc1C(=O)NCC(N)c1ccc(C(=O)Nc2ccncc2)cc1 (stereo not shown) ?
stdout: 0.5 to 5 µM

stdin: Which IC50 reading was recorded for the molecule NC(CNC(=O)c1ccccc1-c1ccccc1)c1ccc(C(=O)Nc2ccncc2)cc1 (stereo not shown) ?
stdout: 0.5 to 5 µM

Source of measurements: patent US20100168102A9
